Collected Ki for Coagulation factor X (Homo sapiens) across several studies; molecules listed below.
observed-property: Ki (nM)

Here's what some known entries look like.
molecule	Ki / nM
Cc1ccc(S(=O)(=O)N[C@@H](Cc2cccc(C(=N)N)c2)C(=O)N2CCOCC2)cc1	52000
CC(C)(C(=O)Nc1ccc(-n2cnc3ccccc32)cc1)c1c[nH]c2ccc(C(=N)N)cc12	2.2
N=C(N)c1ccc2[nH]cc(C(Cc3ccc(NS(=O)(=O)c4ccccc4)cc3)C(=O)Nc3ccc(-n4cnc5ccccc54)cc3)c2c1 (configuration not stated)	19
CN(CC(=O)N[C@@H](CCCCN)C(=O)C(=O)Nc1ccc(Oc2ccc(N)cc2)cc1)C(=O)c1ccccc1Sc1ccccc1C#N	120
CN(C)Cc1ccccc1-c1ccc(N2CCc3c(C(F)(F)F)nn(-c4cccc([N+](=O)[O-])c4)c3C2=O)cc1	20

(1) CC(=O)NCC(Oc1cccc2sc(C(=N)N)cc12)c1ccccc1 (configuration not stated)
(2) N=C(N)c1cccc(C2=NOC(Cn3cnnn3)(C(=O)Nc3ccc(-c4ccccc4S(N)(=O)=O)cc3Cl)C2)c1.O=C(O)C(F)(F)F (configuration not stated)
(3) NC(=O)c1cc(C(=O)N2CCc3cc(-c4ccccc4CN4CCCC4)ccc32)n(-c2ccc3onc(N)c3c2)n1
Input: In this exercise, place the 3 molecules in ascending sequence of their recorded Ki. Form field (ranking): labels in requested order.
Output: 2, 3, 1

(1) N=C(N)c1cccc(C[C@H](NS(=O)(=O)c2cccc(C3CCC(N)=NC3)c2)C(=O)N2CCC(CCN)CC2)c1 (some centres not stated)
(2) CC[N+](C)(C)c1ccc(CNC(=O)c2cc3cc(F)ccc3n2Cc2cccc(C(=N)N)c2)cc1
Input: Compare reported Ki values for 1 and 2 . Which is lower? The response must carry the label of the picked entry.
Output: 1
(1: 10 nM, 2: 103 nM)

----------
Below: compounds with Ki recorded for UniProt:P00742 in separate published works.
observed-property: Ki (nM)

Some compounds with recorded Ki:
compound	system-under-test	unit-tag	observed-value
O=C(Nc1cccc(OCc2ccc(-c3c(F)cccc3F)cc2)c1)C1CCNCC1	UniProt:P00742	nM	1450
N=C(N)c1cccc(CN2CC[C@H](NS(=O)(=O)c3ccc(-c4cccnc4)s3)C2=O)c1	UniProt:P00742	nM	41

(a) Cc1ccc(NS(=O)(=O)Cc2ccc(F)cc2Cl)c(=O)n1CC(=O)NCC1CCc2n[nH]cc2C1 (stereo not drawn)
(b) CCOCC1(C(=O)Nc2ccc(-c3ccccc3S(N)(=O)=O)cn2)CC(c2cccc(C(=N)N)c2)=NO1 (stereo not drawn)
Input: # returns the entry with the larger Ki; inputs a and b Give the label of your selection.
Output: a
(a: 75000 nM, b: 0.8 nM)

(I) CN1CCN=C1c1cccc(Oc2nc(Oc3cc(C(=N)N)ccc3O)c(F)c(O[C@H]3CN[C@H](C(=O)O)C3)c2F)c1
(II) C[C@H](NC(=O)CNC(=O)Nc1ccc(C(=N)N)cc1)c1ccc2ccccc2c1
(III) COc1ccc(-n2nc(C(N)=O)c3c2C(=O)N(c2ccc(C(C)(C)CNC4CC4)cc2)CC3)cc1
Input: Sort the compounds on Ki; start with the lowest figure. When ranking, write the labels in the order the request describes.
Output: III, I, II

----------
Collected from the literature: Ki of various compounds toward Coagulation factor X (Homo sapiens, UniProt P00742).
observed-property: Ki (nM)

Check out these entries, answers already filled in.
compound	system-under-test	observed-property	unit-tag	observed-value
O=C(O)CN(C1CCCN(c2ccc(-n3ccccc3=O)cc2)C1=O)S(=O)(=O)c1cc2ccc(Cl)nc2s1 (stereo not drawn)	Coagulation factor X (Homo sapiens, UniProt P00742)	Ki	nM	0.13
CNCc1ccccc1NC(=O)OCC(Oc1cccc2sc(C(=N)N)cc12)c1ccccc1 (stereo not drawn)	Coagulation factor X (Homo sapiens, UniProt P00742)	Ki	nM	1150
N=C(N)c1cccc(Oc2cncc(Oc3cccc(C(=N)N)c3)n2)c1	Coagulation factor X (Homo sapiens, UniProt P00742)	Ki	nM	51
COc1ccc(-n2nc(C(N)=O)c3c2C(=O)N(c2ccc(C(C)(C)N(C)C)cc2)CC3)cc1	Coagulation factor X (Homo sapiens, UniProt P00742)	Ki	nM	0.2
Cc1c(F)c(Oc2cccc(C(=O)N(C)C)c2)nc(Oc2cc(C(=N)N)ccc2O)c1F	Coagulation factor X (Homo sapiens, UniProt P00742)	Ki	nM	1.8

(P) Nc1cc(C2=NOC(Cn3cnnn3)(C(=O)Nc3ccc(-c4ccccc4S(N)(=O)=O)cn3)C2)ccc1Cl (stereo in doubt; 20 (-))
(Q) N=C(N)c1cccc(C(=O)NC(C(=O)NCC2CCC(CN)CC2)c2ccc(-c3ccccc3)cc2)c1 (stereo not drawn)
(R) COc1ccc(-n2nc(C(F)(F)F)cc2C(=O)Nc2ccc(-c3ccccc3S(C)(=O)=O)cc2F)cc1
Input: Hey, quick one: sort these by Ki, largest value first please. Response field: labels, in requested order.
Output: Q, P, R
(Q: 800 nM, P: 7.1 nM, R: 3.6 nM)

----------
Ki values for Coagulation factor X (Homo sapiens, UniProt P00742) compiled from several publications are listed below.
observed-property: Ki (nM)

Record excerpt, results attached:
compound	observed-property	unit-tag	observed-value
CN(C)Cc1ccccc1-c1ccc2c(c1)CCN2C(=O)c1cc(C(N)=O)nn1-c1ccc2onc(N)c2c1	Ki	nM	1
CS(=O)(=O)c1ccccc1-c1ccc(N2CCCC(NS(=O)(=O)c3ccc(F)c(F)c3)C2=O)c(F)c1 (configuration not stated)	Ki	nM	270
N=C(N)c1ccc(O)c(/C=C/CNC(=O)c2ccc(-c3c[nH]cn3)cc2)c1	Ki	nM	19
COc1ccc(-n2nc(C(F)(F)F)c3c2C(=O)N(c2ccc(N4CCCCC4)cc2)CC3)cc1	Ki	nM	2.1
COc1ccc(-n2nc(N(C)C(=O)OC(C)(C)C)c3c2C(=O)N(c2ccc(-c4ccccc4CN4CC[C@@H](O)C4)cc2)CC3)cc1	Ki	nM	2

(A) N=C(N)c1cccc(C2=NOC(C(=O)Nc3ccc(-c4ccccc4S(N)(=O)=O)cc3)(C(F)(F)F)C2)c1 (configuration not stated)
(B) CC(C)(C)[C@@H](O)C(=O)N1CCS(=O)(=O)C[C@H]1C(=O)NCc1cc(Cl)ccc1CN.O=C(O)C(F)(F)F
Input: Of A and B , whose reported Ki is numerically smaller? Let me know the label of the one you choose.
Output: A
(A: 23 nM, B: 3100 nM)

----------
Published Ki for Coagulation factor X (Homo sapiens, UniProt P00742), assembled from different documents, is shown next.
observed-property: Ki (nM)

Solved entries:
molecule	Ki (nM)
CCC(C)(C)c1ccc(S(=O)(=O)N[C@@H](Cc2cccc(C(=N)N)c2)C(=O)N2CCN(C(=O)CCN=C(N)N)CC2)cc1	8300
COc1ccc(CNC(=O)[C@H](NC(=O)c2cccc(C(=N)N)c2)c2ccccc2)cc1	28
N=C(N)c1cccc(C[C@H](NS(=O)(=O)c2cccc(NC(=O)CCN)c2)C(=O)N2CCCC[C@@H]2C(=O)O)c1	11000
N=C(N)c1cc2c(OC(CNC(=O)Nc3ccccc3)c3ccccc3)cccc2s1 (stereo not drawn)	960

(P) N=C(N)c1ccc(/C=C2/CCCC/C(=C/c3ccc(C(N)=O)cc3)C2=O)cc1
(Q) O=C1C(NS(=O)(=O)c2cc3ccc(Cl)nc3s2)CCCN1c1ccc(-n2ccccc2=O)cc1 (stereo not drawn)
(R) N=C(N)c1cccc(CNC(=O)c2cc3cc(OCc4ccccc4)ccc3n2Cc2cccc(C(=N)N)c2)c1
Input: Thanks in advance: please rank these 3 entries by Ki, highest to lowest. Give the labels in the order requested.
Output: R, P, Q
(R: 133 nM, P: 50 nM, Q: 0.05 nM)

----------
pKi: −log10 of the molar value.
Multi-source literature compilation: pKi on Coagulation factor X (Homo sapiens, UniProt P00742).
observed-property: pKi

Guide cases for pKi, answers given:
molecule	system-under-test	pKi
C/C(=C(\F)C(=O)Nc1ccc(-c2ccccc2S(N)(=O)=O)cc1Cl)c1ccc2ccnc(N)c2c1	Coagulation factor X (Homo sapiens, UniProt P00742)	8.96
CCOC(=O)CN(C(=O)c1ccccc1)c1ccc2c(c1)OC(C)(COc1ccc(C(=N)N)cc1)CN2C (configuration not stated)	Coagulation factor X (Homo sapiens, UniProt P00742)	5.02
O=C(Nc1cccc(OCc2ccc(Br)cc2)c1)C1CCN(c2ccncc2)CC1	Coagulation factor X (Homo sapiens, UniProt P00742)	4.43

(A) CCCS(=O)(=O)NCC1(C(=O)Nc2ccc(-c3ccccc3S(N)(=O)=O)cn2)CC(c2ccc(Cl)c(N)c2)=NO1 (racemic)
(B) COC(=O)CC1(C(=O)Nc2ccc(-c3cccc(S(N)(=O)=O)c3)cc2)CC(c2cccc(C(=N)N)c2)=NO1 (configuration not stated)
(C) Cc1[nH]cnc1CCNC(=O)CN1CCN(S(=O)(=O)c2cc3ccc(Cl)cc3s2)CC1=O
(D) O=C(Nc1cccc(OCc2ccc(F)cc2)c1)C1CCCNC1 (configuration not stated)
(E) O=C1CN(S(=O)(=O)CCc2ccc(Cl)s2)CCN1Cc1cc2c[nH]ccc-2n1
Input: Rank descending by pKi. Ranked list of labels, please, in the requested order.
Output: A, B, E, C, D
(A: 8.43, B: 7.17, E: 6.89, C: 6.47, D: 3.59)
